Target: DNA polymerase alpha catalytic domain (PolαCD) (human, UniProt P09884 338-1250)
Sequence (P09884 338-1250): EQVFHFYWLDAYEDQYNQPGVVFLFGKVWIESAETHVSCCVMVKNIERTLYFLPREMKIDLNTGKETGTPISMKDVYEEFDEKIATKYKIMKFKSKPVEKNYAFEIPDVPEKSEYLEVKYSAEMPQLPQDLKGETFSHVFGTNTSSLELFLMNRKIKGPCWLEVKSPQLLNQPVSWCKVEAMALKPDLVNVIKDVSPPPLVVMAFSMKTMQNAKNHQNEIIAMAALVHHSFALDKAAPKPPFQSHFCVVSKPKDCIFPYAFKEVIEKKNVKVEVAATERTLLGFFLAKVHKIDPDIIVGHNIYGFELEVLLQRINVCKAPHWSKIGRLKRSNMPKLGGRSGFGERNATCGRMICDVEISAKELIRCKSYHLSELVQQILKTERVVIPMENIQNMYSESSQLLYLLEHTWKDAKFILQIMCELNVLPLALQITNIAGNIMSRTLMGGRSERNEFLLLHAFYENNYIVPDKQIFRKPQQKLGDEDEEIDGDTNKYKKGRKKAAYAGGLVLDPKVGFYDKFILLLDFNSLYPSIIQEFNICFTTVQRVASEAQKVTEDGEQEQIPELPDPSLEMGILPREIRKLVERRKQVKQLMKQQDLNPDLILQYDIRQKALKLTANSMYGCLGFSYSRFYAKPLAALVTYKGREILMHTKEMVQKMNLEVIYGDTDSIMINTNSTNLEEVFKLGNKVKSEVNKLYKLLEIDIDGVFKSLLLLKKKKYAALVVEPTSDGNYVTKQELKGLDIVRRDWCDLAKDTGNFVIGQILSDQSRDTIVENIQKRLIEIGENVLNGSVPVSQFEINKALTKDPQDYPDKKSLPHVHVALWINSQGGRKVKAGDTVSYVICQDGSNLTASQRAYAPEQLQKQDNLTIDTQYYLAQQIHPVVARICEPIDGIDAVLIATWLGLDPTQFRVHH
Assay: BLI
Value Type: Kd (nM)
Write down the numeric answer in nM and omit the unit.

Would you kindly share the measured Kd for G-C template:primer (matched) (dsDNA, primer 3'-terminal dideoxycytidine) DNA 1: AATACATAAGCGCTCCAGGCAAT DNA 2: GCCTGGAGCGC ?
1200
